Hello, the source for this data is the Deep4Chem optical property database, in case you need it.

- protocol_text: solvent given as SMILES
- test_parameters: in CCCCO

{"compound_smiles": "CCCCCCC(CCCCCC)N1C(=O)c2cccc3c(-c4ccc(N(C)C)cc4)ccc(c23)C1=O", "absorption maximum / nm": 430.2}
{"compound_smiles": "O=C1Nc2ccccc2/C1=C/C(=O)c1ccc(Cl)cc1Cl", "absorption maximum / nm": 341}
{"compound_smiles": "COCCOCCOCCOc1cc(C=O)c(OCCOCCOCCOC)cc1C=O", "absorption maximum / nm": 378}
{"compound_smiles": "COCCOCCOCCOCCOc1ccc(OCCOCCOCCOCCOC)c(C=O)c1", "absorption maximum / nm": 349}
{"compound_smiles": "Cc1cnc(NC(=O)C2=C(O)c3ccccc3S(=O)(=O)N2C)s1", "absorption maximum / nm": 350}
{"compound_smiles": "COc1c2ccccc2c(-c2ccccc2)c2ccccc12", "absorption maximum / nm": 378}
{"compound_smiles": "COc1ccc2c(=O)c3c([nH]c2c1)-c1cc(Cl)ccc1NC3(C)C", "absorption maximum / nm": 426}
{"compound_smiles": "O=C1Nc2ccccc2/C1=C/C(=O)c1ccc(Cl)cc1", "absorption maximum / nm": 339}
{"compound_smiles": "Cc1cc(=O)c2ccc(N)cc2o1", "absorption maximum / nm": 329}
{"compound_smiles": "CN1C(C(=O)Nc2ccccn2)=C([O-])c2sccc2S1(=O)=O", "absorption maximum / nm": 377}
{"compound_smiles": "O=C(O)c1c2ccccc2nc2ccccc12", "absorption maximum / nm": 370}
{"compound_smiles": "CC\\C=C/C=C/C=C/C=C\\CCCCCCCC(=O)O", "absorption maximum / nm": 320.6}
{"compound_smiles": "C#CCN1C(=O)/C(=C/c2cc(OC(C)C)ccc2OC(C)C)N=C1C", "absorption maximum / nm": 400}
{"compound_smiles": "COc1ccc2c(CC(=O)NN)coc2c1", "absorption maximum / nm": 278}
{"compound_smiles": "C#CCNC1=C2C=CC=[N+]2[B-](F)(F)n2cccc21", "absorption maximum / nm": 406}
{"compound_smiles": "O=C1/C(=C/C=C/c2cc3c4c(c2)CCCN4CCC3)CC/C1=C\\C=C\\c1cc2c3c(c1)CCCN3CCC2", "absorption maximum / nm": 543}
{"compound_smiles": "CCOC(=O)/C=C/c1ccc(N(C)C)cc1", "absorption maximum / nm": 363}
{"compound_smiles": "CN(C)c1cccc2c1ccc1c(=O)oc(-c3ccc(C(F)(F)F)cc3)cc12", "absorption maximum / nm": 394}
{"compound_smiles": "Cc1ccc2occ(CC(=O)NN)c2c1", "absorption maximum / nm": 290}
{"compound_smiles": "CCCCCCC(CCCCCC)N1C(=O)c2cccc3c(-c4ccc(C#N)cc4)ccc(c23)C1=O", "absorption maximum / nm": 367.8}
{"compound_smiles": "CCCCCCCCCCCCCCCC[n+]1ccc(/C=C/c2ccc(N(C)C)cc2)cc1", "absorption maximum / nm": 487.1}
{"compound_smiles": "CCCCCCC(CCCCCC)N1C(=O)c2cccc3c(-c4ccccc4)ccc(c23)C1=O", "absorption maximum / nm": 355.2}
{"compound_smiles": "Cc1ccc(/C=N/c2cc(C(C)C)c(O)cc2C)cc1", "absorption maximum / nm": 345}

###

- protocol_text: solvent given as SMILES
- test_parameters: in CCCCCC

{"compound_smiles": "O=C1Nc2ccccc2/C1=C/C(=O)c1ccc(Cl)cc1", "unit_abbreviation": "nm", "absorption maximum": 334}
{"compound_smiles": "Cc1cc(C)cc(NC(=O)c2sc(Br)nc2C)c1", "unit_abbreviation": "nm", "absorption maximum": 280.5}
{"compound_smiles": "F[B-]1(F)n2c(-c3ccccc3)cnc2-c2cccc[n+]21", "unit_abbreviation": "nm", "absorption maximum": 412}
{"compound_smiles": "CCc1c(C)c2n(c1C)[B-](F)(F)[N+]1=C(c3ccc[nH]3)c3ccccc3C1=C2", "unit_abbreviation": "nm", "absorption maximum": 614}
{"compound_smiles": "O=Cc1ccc2ccc3cccc4ccc1c2c34", "unit_abbreviation": "nm", "absorption maximum": 387}
{"compound_smiles": "Cc1cc(C)c(C2=C3C=C(/C=C/C(=O)OC(C)(C)C)C=[N+]3[B-](F)(F)n3c2ccc3N2CCOCC2)c(C)c1", "unit_abbreviation": "nm", "absorption maximum": 532}
{"compound_smiles": "c1csc(-c2cnc(-c3cccs3)c3nonc23)c1", "unit_abbreviation": "nm", "absorption maximum": 458}
{"compound_smiles": "CC(C)(C)c1ccc(-c2c3ccccc3c3n2[B-](F)(F)[N+]2=Cc4c5ccccc5c(-c5ccc(C(C)(C)C)cc5)n4[B-](F)(F)[N+]2=C3)cc1", "unit_abbreviation": "nm", "absorption maximum": 568}
{"compound_smiles": "Nc1ccc2c(c1)Cc1ccccc1-2", "unit_abbreviation": "nm", "absorption maximum": 318}
{"compound_smiles": "Cn1cccc1-c1cc(C#N)ccc1C#N", "unit_abbreviation": "nm", "absorption maximum": 366}

###

Recorded absorption maximum values for a group of molecules are listed next.
- protocol_text: solvent given as SMILES
- test_parameters: in CCO
measured_property: absorption maximum (nm)

{"compound_smiles": "CN(C)c1cc(-c2ccc(C#Cc3ccccc3)cc2)cc2ccccc12", "unit_abbreviation": "nm", "recorded_value": 300.29}
{"compound_smiles": "CN1/C(=C/C=C(/C=C/c2sc3ccccc3[n+]2C)c2cccc(C(F)(F)F)c2)Sc2ccccc21", "unit_abbreviation": "nm", "recorded_value": 645}
{"compound_smiles": "N#CC1=c2cc3c4c(c2Oc2c1cc1c5c2CCCN5CCC1)CCC[N+]=4CCC3", "unit_abbreviation": "nm", "recorded_value": 682}
{"compound_smiles": "CC(C)(C)Nc1cc2sc3cc(NC(C)(C)C)c(F)cc3c(=O)c2cc1F", "unit_abbreviation": "nm", "recorded_value": 373}
{"compound_smiles": "COc1ccc(C(=O)OCc2ccc3c4cccc5cccc(c6cccc2c63)c54)cc1", "unit_abbreviation": "nm", "recorded_value": 439}
{"compound_smiles": "Cc1cc(=O)oc2cc(-c3cn(Cc4ccccc4)nn3)ccc12", "unit_abbreviation": "nm", "recorded_value": 329}
{"compound_smiles": "O=C1NC(=O)C(c2c[nH]c3ccccc23)=C1c1c[nH]c2ccccc12", "unit_abbreviation": "nm", "recorded_value": 460}
{"compound_smiles": "c1ccc(-c2c3ccccc3c(-c3ncccn3)c3ccccc23)cc1", "unit_abbreviation": "nm", "recorded_value": 390}
{"compound_smiles": "COc1cccc(OC)c1-c1c2ccc(=[N+]3CCNCC3)cc-2oc2cc(N3CCNCC3)ccc12", "unit_abbreviation": "nm", "recorded_value": 561}
{"compound_smiles": "Cc1cccc2nc3c(=O)[nH]c(=O)[nH]c3nc12", "unit_abbreviation": "nm", "recorded_value": 381}
{"compound_smiles": "O=C1C=C(Nc2ccccc2)CCC1", "unit_abbreviation": "nm", "recorded_value": 307}

###

Collected absorption maximum values appear next to each entry.
- protocol_text: solvent given as SMILES
- test_parameters: in ClC(Cl)Cl

{"compound_smiles": "Cc1ccc(C2=C3C=CC4=[N+]3[P-](=O)(=O)n3c2ccc3-c2ccc([nH]2)/C(c2ccc(C)cc2)=c2/cc/c(o2)=C(\\c2ccc(C)cc2)c2ccc4[nH]2)cc1", "absorption maximum": "708 nm"}
{"compound_smiles": "F[B-]1(F)OC(c2ccc(C(F)(F)F)cc2)=Cc2c3ccccc3c3ccccc3[n+]21", "absorption maximum": "430 nm"}
{"compound_smiles": "CCOc1ccc2c(-c3nc(-c4ccccc4)no3)cc(=O)oc2c1", "absorption maximum": "392 nm"}
{"compound_smiles": "Cc1cc(=O)c2ccc(N)cc2o1", "absorption maximum": "311 nm"}
{"compound_smiles": "CN(C)c1ccc(C2=Cc3cc(Cl)nc[n+]3[B-](F)(F)O2)cc1", "absorption maximum": "460 nm"}
{"compound_smiles": "Cc1ccc(-n2c(-c3ccccc3O)nc(-c3ccccc3O)c2-c2ccccc2O)cc1", "absorption maximum": "310 nm"}
{"compound_smiles": "O[Si](c1c2ccccc2cc2ccccc12)(c1c2ccccc2cc2ccccc12)c1c2ccccc2cc2ccccc12", "absorption maximum": "402 nm"}
{"compound_smiles": "CCC1=C(C)C(=O)n2c1cc1c(CCC(=O)O)c(C)c(C)n1c2=O", "absorption maximum": "423 nm"}
{"compound_smiles": "CC(C)(C)NC(=O)c1c([Si](C)(C)C)cc2ccc3cccc4ccc1c2c34", "absorption maximum": "382 nm"}

###

- protocol_text: solvent given as SMILES
- test_parameters: in ClCCl
absorption maximum by entry:

{"compound_smiles": "COc1c2ccccc2c(OC)c2c1c1c(F)cccc1n2C", "absorption maximum (nm)": 406}
{"compound_smiles": "Cc1ccc(/C=N/c2cc(C(C)C)c(O)cc2C)cc1", "absorption maximum (nm)": 341}
{"compound_smiles": "CCN(CC)c1ccc2cc(/C=C(\\C#N)c3nc4ccccc4s3)c(=O)oc2c1", "absorption maximum (nm)": 509}
{"compound_smiles": "CN(C)c1cc(-c2ccc(C#Cc3ccccc3)cc2)cc2ccccc12", "absorption maximum (nm)": 304}
{"compound_smiles": "COc1cccc(C2=c3c(c4ccc(C(C)(C)C)cc4c4cc(C(C)(C)C)ccc34)=[N+]3C2=C(c2ccccc2)c2c(-c4cccc(OC)c4)c4c5ccc(C(C)(C)C)cc5c5cc(C(C)(C)C)ccc5c4n2[B-]3(F)F)c1", "absorption maximum (nm)": 677}
{"compound_smiles": "O=C1c2ccccc2-c2nc3c(F)c(F)c(F)c(F)c3n21", "absorption maximum (nm)": 337}
{"compound_smiles": "CN(C)c1ccc(C#Cc2cc3ccccc3oc2=O)cc1", "absorption maximum (nm)": 406}
{"compound_smiles": "CCC1(CC)c2cc(N(C)C)ccc2-c2ccc(C(F)(F)F)cc21", "absorption maximum (nm)": 344}
{"compound_smiles": "CC(C)(C)c1ccc(C#Cc2c(C#Cc3ccc(C(C)(C)C)cc3)c3cccc4c(C#Cc5ccc(C(C)(C)C)cc5)c(C#Cc5ccc(C(C)(C)C)cc5)c5cccc2c5c34)cc1", "absorption maximum (nm)": 410}
{"compound_smiles": "CCCCN1C(=O)C2=C(c3ccc(Br)cc3)NC(=O)C2=C1c1ccc(Br)cc1", "absorption maximum (nm)": 477}
{"compound_smiles": "CC1(C)c2ccccc2N(c2ccc(-c3n[n+]4c(o3)-c3ccccc3O[B-]4(F)F)cc2)c2ccccc21", "absorption maximum (nm)": 383}
{"compound_smiles": "Oc1ccc2ccccc2c1-c1nc(-c2ccccc2)c2ccccn12", "absorption maximum (nm)": 362}
{"compound_smiles": "CN(C)c1ccc2c3c(c(=O)oc2c1)C=c1cc2c(cc1O3)=[N+](CCC(=O)O)CCC2", "absorption maximum (nm)": 606}
{"compound_smiles": "CCOC(=O)c1c(-c2c(Cl)c3cc(C)ccc3oc2=O)nn(-c2cccc(C)c2)c1C(=O)OCC", "absorption maximum (nm)": 331}
{"compound_smiles": "Cc1cc(O)c(-c2[nH]c(=O)n3c2-c2ccccc2C3=O)cc1Cl", "absorption maximum (nm)": 399}
{"compound_smiles": "Cc1cc(-c2ccc(C(C)(C)C)cc2)cc(C)[o+]1", "absorption maximum (nm)": 365}
{"compound_smiles": "N#Cc1cnc(-c2c3ccccc3c(-c3ncc(C#N)cn3)c3ccccc23)nc1", "absorption maximum (nm)": 394}
{"compound_smiles": "Cc1s[c+](N2CCOCC2)sc1-c1cc(I)cc(I)c1[O-]", "absorption maximum (nm)": 413}
{"compound_smiles": "CCN(CC)c1ccc2c(C#N)c(/C=C(\\C#N)c3nc4ccccc4s3)c(=O)oc2c1", "absorption maximum (nm)": 611}
{"compound_smiles": "CCn1c2ccccc2c2cc(-c3cc(-c4ccc5c(c4)c4ccccc4n5CC)nc(C#N)n3)ccc21", "absorption maximum (nm)": 381}
{"compound_smiles": "CCc1c(C)[nH]c(C2=[N+]3C(=C(C)c4c(C)c(CC)c(C)n4[B-]3(F)F)c3ccccc32)c1C", "absorption maximum (nm)": 619}
{"compound_smiles": "CCCCN1C(=O)C2=C(c3ccc(Br)cc3)[N-]C(=O)C2=C1c1ccc(Br)cc1", "absorption maximum (nm)": 571}
{"compound_smiles": "c1ccc2c(-c3cncnc3)c3ccccc3c(-c3cncnc3)c2c1", "absorption maximum (nm)": 397}
{"compound_smiles": "CC(C)(C)c1ccc(N(c2ccc(C(C)(C)C)cc2)c2ccc3c(N(c4ccc(C(C)(C)C)cc4)c4ccc(C(C)(C)C)cc4)cc4c5cc(N(c6ccc(C(C)(C)C)cc6)c6ccc(C(C)(C)C)cc6)ccc5c(N(c5ccc(C(C)(C)C)cc5)c5ccc(C(C)(C)C)cc5)cc4c3c2)cc1", "absorption maximum (nm)": 433}
{"compound_smiles": "O=Cc1c(O)c(-c2nc3ccccc3s2)cc2ccccc12", "absorption maximum (nm)": 352}
{"compound_smiles": "CCN(CC)c1ccc2c(c1)oc(=O)c1cc3cnn(-c4ccccc4)c3nc12", "absorption maximum (nm)": 379}
{"compound_smiles": "C[Si]1(C)O[Si](C)(C)c2cc3c(-c4ccccc4F)c4cc(Cl)ccc4nc3cc21", "absorption maximum (nm)": 380}
{"compound_smiles": "CC(=O)Nc1cccc2c1C#Cc1c(cccc1C(=O)N(C)C)OCCCO2", "absorption maximum (nm)": 318}
{"compound_smiles": "CCN(CC)c1ccc(/C=C/C(=O)c2c(O)cc(C)oc2=O)cc1", "absorption maximum (nm)": 480}
{"compound_smiles": "CCOC(=O)c1c(-c2cc3ccc(OC)cc3oc2=O)nn(-c2ccccc2)c1C(=O)OCC", "absorption maximum (nm)": 337}
{"compound_smiles": "c1csc(-c2ccc(-c3ccc(-c4cccs4)s3)s2)c1", "absorption maximum (nm)": 393}
{"compound_smiles": "c1cc2c(N3CCCCC3)c3ccc(=[N+]4CCCCC4)cc-3oc2cc1N1CCCCC1", "absorption maximum (nm)": 491}
{"compound_smiles": "C(=C\\c1ccc(N(c2ccccc2)c2ccccc2)cc1)/c1ccc(-c2ccc(/C=C/c3ccc(N(c4ccccc4)c4ccccc4)cc3)cc2)cc1", "absorption maximum (nm)": 398}
{"compound_smiles": "CCCC(=O)c1c2c(c(C(=O)CCC)c3c1OC(CC(=O)OC)(C(=O)OC)O3)OCO2", "absorption maximum (nm)": 425}
{"compound_smiles": "Cc1ccc(O)c(-c2nc(C)c3n2CCCC3)c1", "absorption maximum (nm)": 321}
{"compound_smiles": "CC1=[N+]2C(=c3c4c5ccccc5cc5cccc(c6cc(C)n(c36)[B-]2(F)F)c54)C=C1", "absorption maximum (nm)": 583}
{"compound_smiles": "CC(C)(C)c1ccc2c(c1)c1cc(C(C)(C)C)ccc1n2-c1cccs1", "absorption maximum (nm)": 340}
{"compound_smiles": "CCn1c2ccccc2c2cc(/C=C3\\C(=O)c4ccccc4S3(=O)=O)ccc21", "absorption maximum (nm)": 448}
